System: PC-3 prostate
TEST_PROTOCOL: NCI tumour cell line growth inhibition, 48 h; in the data active = GI50 below about 0.43 µM; inactive = the rest
Choose the fitting class; nothing outside yes (1) (active), no (0) (inactive) is accepted.

The following compounds have reported results that may help.
{"columns": ["COMPOUND", "EXPERIMENTAL_TARGET", "CLASSIFICATION"],
 "data": [
  ["N#CC1=C(N)Oc2c(sc3c(Br)cccc23)C1c1ccc([N+](=O)[O-])cc1 (stereo not drawn)", "PC-3 prostate", "yes (1)"],
  ["O=c1[nH]c2ccccc2n1C1CCNCC1", "PC-3 prostate", "no (0)"],
  ["COc1cc2cc(NCc3cccc(Cl)c3)nc(C)c2cc1OC", "PC-3 prostate", "no (0)"],
  ["O=C1NC(=O)C(c2c[nH]c3ccccc23)=C1c1c[nH]c2ccccc12", "PC-3 prostate", "no (0)"],
  ["NS(=O)(=O)c1ccc(N(/C=C/C(=O)C(F)(F)F)CC(=O)c2ccc(F)cc2)cc1", "PC-3 prostate", "no (0)"],
  ["COc1ccc(C2=NN(C(N)=S)C(c3ccc4c(c3)OCO4)C2)cc1 (stereo not drawn)", "PC-3 prostate", "no (0)"],
  ["Cc1cc(I)cc(CNCCN(C)C)c1O", "PC-3 prostate", "no (0)"],
  ["O=C(NCc1cn(Cc2cccc(Oc3ccccc3)c2)nn1)c1cccnc1Nc1ccc(F)cc1", "PC-3 prostate", "no (0)"]
]}

## Task Lab log entry: Cn1ncnc1[C@@H]1c2n[nH]c(=O)c3cc(F)cc(c23)N[C@H]1c1ccc(F)cc1 — outcome as called in the assay?
## Result no (0)

## Task Lab log entry: COc1cc(/C=C2\CC3C4CC=C5CC(OC(C)=O)CC[C@]5(C)C4CC[C@]3(C)C2=O)ccc1OCCN1CCCC1 (stereo partly drawn) — outcome as called in the assay?
## Result no (0)

## Task Lab log entry: CCOC(=O)c1noc2c1CCc1c-2cn(Cc2ccc(OC)cc2)c1-c1cc(OC)c(OC)c(OC)c1 — outcome as called in the assay?
## Result no (0)

## Task Lab log entry: ClC1=C(Cl)C(Cl)(C2(Cl)C(Cl)=C(Cl)C(Cl)=C2Cl)C(Cl)=C1Cl — outcome as called in the assay?
## Result no (0)

## Task Lab log entry: Nc1ccc(/C=C/c2ccc3ncccc3c2)cc1 — outcome as called in the assay?
## Result no (0)

Cited source: PubChem BioAssay (NCI)
